Value source: patent US20210253725A1

Target: T1, CD27 expressed on the cell surface (HT1080_CD27 cells) (human, UniProt P26842 20-260); note: test concentration or dose not given here
T1 sequence (looked up): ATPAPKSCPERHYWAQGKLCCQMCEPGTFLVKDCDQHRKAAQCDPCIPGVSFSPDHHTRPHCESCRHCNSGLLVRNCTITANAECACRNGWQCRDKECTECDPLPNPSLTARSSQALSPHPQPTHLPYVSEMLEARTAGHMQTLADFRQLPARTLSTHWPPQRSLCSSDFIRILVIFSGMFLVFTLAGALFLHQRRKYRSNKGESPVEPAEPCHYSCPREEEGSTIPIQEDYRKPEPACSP
Assay: cell-based or functional assay
Measured parameter: IL-8 [abs. corr.]

Examples with their reported IL-8 [abs. corr.] follow.
Binder	Value
P018.S.08.A.A03 (antibody, V domains shown, V regions on human Ig constant parts; also called AB27_136) VH: QSLEESGGRLVTPGTPLTLTCTASGFSLSSYGMIWVRQAPGKGLEWIGMIIDVTYTYYASWAKGRFTISKTSTTVDLKMTSLTTEDTATYFCARTPGYGIYAYGNLWGQGTLVTVSS VL: AQVLTQTPSPVSAAVGGTVTISCQSSQSVYGNNWLAWYQQKPGQPPKLLIYYASTLASGVPSRFKGSGSGTQFTLTISEVQSDDAATYYCQGYYSSAAYVFGGGTEVVVK	0.276 abs. corr.
P018.S.03.A.F02 (antibody, V domains shown, V regions on human Ig constant parts; also called AB27_53) VH: QSVEESGGRLVTPGTPLTLTCTVSGFSLSSNAMTWVRQAPGKGLEWIGFINTGGSTYYASWAKGRFTISKTSTTVDLKITSPTTEDTATYFCARDVGDSRGYYWGLWGQGTLVTVSS VL: AYDMTQTPASVPAAVGGTVTIKCQASEDIYSLLAWYQQKPGQPPKLLIYDASDLASGVPSRFRGSGSGTDYTLTISGVESADAATYYCQQGYTTYTTVDNIFGGGTEVVVK	0.736 abs. corr.
P018.S.02.A.E06 (antibody, V domains shown, V regions on human Ig constant parts; also called AB27_34) VH: QSLEESGGRLVTPGTPLTLTCTASGFSLSNYSMNWVRQAPGKGLEWIGIINMYGSTYYATWAKGRFTISKTSTTVDLKMTSLTTEDTATYFCARDAGGSTVPWYFDLWGPGTLVTVSS VL: AYDMTQTPASVSEPVGGTVTIKCQASESISDYLAWYQQKPGQRPKLLIYDASKLASGVPSRFSGSGSGTEFTLTISGVGSADAATYYCQQGYADSNVDNVFGGGTEVVVK	0.308 abs. corr.
P018.S.10.A.B06 (antibody, V domains shown, V regions on human Ig constant parts; also called AB27_169) VH: QSVEESGGRLVTPGTPLTLTCTVSGFSLSSSHMCWVRQAPGKGLEWIGVINIGDIAYYASWAKGRFTISKTSTTVDLKMTSLTAADTATYFCARENAYGTGWDFDLWGQGTLVTVSS VL: AYDMTQTPASVEVAVGGTVTIKCQASESIRNALAWYQQKPGQPPKQLIYSASTLASGVPSRFKGSGSGTEFTLTISGVQSDDAATYYCQQGFSLRNVDNAFGGGTEVVVK	0.455 abs. corr.

Output measured IL-8 [abs. corr.] for this item: P018.S.04.A.D02 (antibody, V domains shown, V regions on human Ig constant parts; also called AB27_71) VH: QSLEESGGRLVTPGTPLTLTCTASGFSLSTYAMGWVRQAPGEGLEWIGNINTDSGDTWYARWAKGRFTISTTSSTTVDLKITSPTIEDTATYFCARNPGDDVNLWGQGTLVTVSS VL: AQVLTQTPSPVSAAVGDTVTINCQASQSVYNNNDLAWFQQKPGQPPKLLIYRTSILASGVPSRFKGSGSGTQFTLTISDLESDDAATYYCQGYYSGVIYVFGGGTEVVVK
0.294 abs. corr.
